# protocol_details: Stability in pH 1 buffer solutions assessed as compound degradation after 24 hrs at 37 degC
# Format: physicochemical
# applied_conditions: read-out: Drug degradation
measured_endpoint: degraded at 24 h

[ask] Entry "CCN(CC)CC.Nc1ncnc2c1ncn2[C@@H]1O[C@H](COS(=O)(=O)NC(=O)c2ccccc2O)[C@@H](O)[C@H]1O" : reported degraded at 24 h = ?
[reply] < 5%

###

# protocol_details: Terminal half life in Sprague-Dawley rat at 2.5 mg/kg, iv by LC-MS/MS method
# Type: ADME, organism-based
# applied_conditions: in vivo, read-out: beta t1/2
measured_endpoint: half-life (min)
Entry rule: numbers only, all in min.

[ask] // query half-life value for entry "CCN(CC)CC.Nc1ncnc2c1ncn2[C@@H]1O[C@H](CNS(=O)(=O)NC(=O)c2ccccc2O)[C@@H](O)[C@H]1F"
[reply] 32.5

[ask] If you can, please state the reported half-life value of "CCN(CC)CC.Nc1ncnc2c1ncn2[C@@H]1O[C@H](COS(=O)(=O)NC(=O)c2ccccc2O)[C@@H](O)[C@H]1O" .
[reply] 11

[ask] half-life for "CCN(CC)CC.Nc1ncnc2c1ncn2[C@@H]1O[C@H](CNS(=O)(=O)NC(=O)c2ccccc2O)C[C@H]1F" ?
[reply] 62

[ask] Sample "CCN(CC)CC.O=C(NS(=O)(=O)NC[C@H]1O[C@@H](n2cnc3c(NC4CC4)ncnc32)[C@H](O)[C@@H]1O)c1ccccc1O" — what was its half-life?
[reply] 15.1

[ask] Could you tell me which half-life is on file for "CCN(CC)CC.Nc1ncnc2c1ncn2[C@@H]1O[C@H](CNS(=O)(=O)NC(=O)c2ccccc2O)[C@@H](O)[C@H]1O" ?
[reply] 10.6

[ask] If you can, please state the reported half-life value of "CCN(CC)CC.Nc1nc(-c2ccccc2)nc2c1ncn2[C@@H]1O[C@H](CNS(=O)(=O)NC(=O)c2ccccc2O)[C@@H](O)[C@H]1F" .
[reply] 121

[ask] Which half-life value is on record for "CCN(CC)CC.O=C(NS(=O)(=O)NC[C@H]1O[C@@H](n2cnc3c(NC4CC4)nc(-c4ccccc4)nc32)[C@H](O)[C@@H]1O)c1ccccc1O" ?
[reply] 15.5

[ask] Entry "CCN(CC)CC.Nc1ccc(C(=O)NS(=O)(=O)NC[C@H]2O[C@@H](n3cnc4c(N)ncnc43)[C@H](O)[C@@H]2O)c(O)c1" has what half-life?
[reply] 10.6
